# System: Nilaparvata lugens
# protocol details: Pest control test of Nilaparvata lugens, soil irrigation treatment
# Assay type: in vivo
# conditions used: soil irrigation treatment, 0.05 mg/pot
reported property: % Mortality, Test Example 12 Nilaparvata lugens

Sample Fc1ccc(Cn2ccccc2=NC(=S)C(F)(F)F)cn1 — what was its % Mortality, Test Example 12 Nilaparvata lugens? 100%

I'm hoping you can list % Mortality, Test Example 12 Nilaparvata lugens for every molecule here, please.
1. FC(F)(F)C(=S)N=c1ccccn1Cc1ccc(Br)nc1
2. FC(F)(F)C(=S)/N=c1\ccccn1Cc1ccc(Cl)nc1
3. Fc1cc(Cn2ccccc2=NC(=S)C(F)(F)F)cnc1Cl
4. FC(F)C(=S)N=c1ccccn1Cc1ccc(Cl)nc1

1: 100%; 2: 100%; 3: 100%; 4: 85%

---

# Test system: Frankliniella occidentalis
# protocol details: Pest control test of Frankliniella occidentalis, kidney bean leaf disk foliar spray
# Format: in vivo
# conditions used: foliar treatment, 100 ppm
reported property: % Mortality, Test Example7 Frankliniella occidentalis
Answer format: value, then unit.

State its % Mortality, Test Example7 Frankliniella occidentalis on Frankliniella occidentalis: FC(F)(F)C(=S)N=c1ccccn1Cc1ccc(Br)nc1 [Compound 4-20] 60%

Give % Mortality, Test Example7 Frankliniella occidentalis for each of the items listed below.
1. Fc1ccc(Cn2ccccc2=NC(=S)C(F)(F)F)cn1 [Compound 3-20]
2. FC(F)C(=S)N=c1ccccn1Cc1ccc(Cl)nc1 [Compound 1-21]
3. Fc1cc(Cn2ccccc2=NC(=S)C(F)(F)F)cnc1Cl [Compound 5-20]

45%
90%
50%

---

# Tested on: Plutella xylostella
# protocol details: Plutella xylostella control test, cabbage leaf disk foliar spray
# Assay type: in vivo
# conditions used: foliar treatment, 20 ppm
reported property: % Mortality, Test Example1 Plutella xylostella (%)
Give bare numbers, in %.

Entry FC(F)(F)C(=S)N=c1ccccn1Cc1ccc(Br)nc1 has what % Mortality, Test Example1 Plutella xylostella? 70

Batch: % Mortality, Test Example1 Plutella xylostella for all items listed.
1. Fc1cc(Cn2ccccc2=NC(=S)C(F)(F)F)cnc1Cl
2. FC(F)C(=S)N=c1ccccn1Cc1ccc(Cl)nc1
3. Fc1ccc(Cn2ccccc2=NC(=S)C(F)(F)F)cn1

1. 100
2. 10
3. 0

---

For each of the compounds below, state its % Mortality, Test Example8 Trigonotylus caelestialium.
# Tested on: Trigonotylus caelestialium
# protocol details: Pest control test of Trigonotylus caelestialium, wheat seedling dipping
# Format: in vivo
# conditions used: 10 ppm
Quote the value and follow it with the unit of measurement.

// known answers, use as guide
Tell me the measured % Mortality, Test Example8 Trigonotylus caelestialium of FC(F)(F)C(=S)N=c1ccccn1Cc1ccc(Br)nc1 , please. 100%

Also, FC(F)C(=S)N=c1ccccn1Cc1ccc(Cl)nc1 please. 100%

Then this compound: Fc1ccc(Cn2ccccc2=NC(=S)C(F)(F)F)cn1 100%

---
Tell me the measured % Mortality, Test Example8 Trigonotylus caelestialium of Fc1cc(Cn2ccccc2=NC(=S)C(F)(F)F)cnc1Cl , please. 17%
